- targetDesc: human GnRH receptors (Homo sapiens, UniProt P30968)
- Sequence (P30968 whole entry): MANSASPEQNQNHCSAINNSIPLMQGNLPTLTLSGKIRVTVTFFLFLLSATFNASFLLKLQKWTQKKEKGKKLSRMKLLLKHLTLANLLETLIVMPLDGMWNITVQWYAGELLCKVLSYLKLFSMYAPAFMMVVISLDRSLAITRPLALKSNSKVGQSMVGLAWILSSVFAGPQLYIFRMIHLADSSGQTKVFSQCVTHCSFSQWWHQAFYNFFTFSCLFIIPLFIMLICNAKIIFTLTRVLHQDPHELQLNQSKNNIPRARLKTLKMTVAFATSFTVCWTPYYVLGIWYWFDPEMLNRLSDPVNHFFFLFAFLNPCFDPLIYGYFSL
outcomeMeasure: pKi
Scale note: pKi = -log10(concentration in M).

Example molecules with recorded pKi:
[
  {
    "molecule": "Cc1cc(NNC(=O)c2ccc(Oc3cc4c(cc3Cl)NC(=O)CC4(C)C)o2)nc2c1c(C)nn2C",
    "targetDesc": "human GnRH receptors (Homo sapiens, UniProt P30968)",
    "pKi": 5.68
  },
  {
    "molecule": "Cc1cc2c(cc1Cc1ccc(C(=O)NNc3cc(C)c4c(C)nn(C)c4n3)o1)C(C)(C)CCC2(C)C",
    "targetDesc": "human GnRH receptors (Homo sapiens, UniProt P30968)",
    "pKi": 8.52
  },
  {
    "molecule": "Cc1ccc(C(C)(C)C)cc1Oc1ccc(C(=O)NNc2cc(C)c3c(C)nn(C)c3n2)o1",
    "targetDesc": "human GnRH receptors (Homo sapiens, UniProt P30968)",
    "pKi": 7.77
  }
]

Which pKi value belongs to `Cc1cc2c(cc1Cc1ccc(C(=O)NNc3ncccc3C(F)(F)F)o1)C(C)(C)CCC2(C)C` ? 7.20

Another molecule to look at: `Cc1cc2c(cc1Cc1ccc(C(=O)NNc3ncc(C(F)(F)F)cc3Cl)o1)C(C)(C)OC2(C)C` 6.08

Another molecule to look at: `COc1cc(OC)c(CNNC(=O)c2ccc(Cc3cc4c(cc3C)C(C)(C)CCC4(C)C)o2)c(OC)c1` 5.74

Another molecule to look at: Cc1cc2c(cc1Oc1ccc(C(=O)NNc3cc(C)c4c(C)nn(C)c4n3)o1)C(C)(C)C(C)C2(C)C (stereo not drawn) 8.74

Another molecule to look at: `Cc1cc(NNC(=O)c2ccc(Oc3cc4c(cc3Cl)N(C)C(=O)CC4(C)C)o2)nc2c1c(C)nn2C` 5.30

Another molecule to look at: `Cc1ccc(C(C)(C)C)cc1Oc1ccc(C(=O)NNc2ccc3ccccc3n2)o1` 7.15

Another molecule to look at: `Cc1cc(NNC(=O)c2ccc(Cc3cc4c(cc3Cl)C(C)(C)CCC4(C)C)o2)nc2c1c(C)nn2C` 8.89

Another molecule to look at: `COc1cc2c(cc1Oc1ccc(C(=O)NNc3cc(C)c4c(C)nn(C)c4n3)o1)C(C)(C)CC2=O` 5.92

Another molecule to look at: `COc1c(Oc2ccc(C(=O)NNc3cc(C)c4c(C)nn(C)c4n3)o2)c(C)cc2c1C(C)(C)CCC2(C)C` 9.52
